# study_system: T1, human OX40 protein (Sino Biological, Cat. 10481-H08H) (human, UniProt P43489 29-216)
# T1 construct: Bought recombinant protein; also called CD134; TNFRSF4
# T1 sequence (looked up): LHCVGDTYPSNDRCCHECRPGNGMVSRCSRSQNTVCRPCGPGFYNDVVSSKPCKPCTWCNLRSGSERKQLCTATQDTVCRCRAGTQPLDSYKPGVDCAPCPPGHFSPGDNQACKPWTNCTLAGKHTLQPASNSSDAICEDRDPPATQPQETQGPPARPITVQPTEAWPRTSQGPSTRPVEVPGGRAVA
# assay_text: ELISA, human OX40 protein coated at 0.1 ug/ml, antibody diluted 4-fold from 100 nM, HRP secondary antibody, O.D. 450 nm
assay_readout: EC50 (read off the curve)

Task: Please indicate EC50 (read off the curve) recorded for O35 (antibody, V domains shown) VH: EVQLLESGGGLVQPGGSLRLSCAASGFTFSDYSMSWVRQAPGKGLEWVSAISSDGGSTYYADSVKGRFTISRDNSKNTLYLQMNSLRAEDTAVYYCARRWQTFDYWGQGTLVTVSS VL: QSVLTQPPSASGTPGQRVTISCTGSSSNIGSNAVSWYQQLPGTAPKLLIYHDSHPPSGVPDRFSGSKSGTSASLAISGLRSEDEADYYCGAWDSSLSGYVFGGGTKLTVLG
Result: ~6 pM

Source of measurements: patent US20240182593A1
